Percent Effect values for the molecules below.
- ASSAYED_TARGET: Shiga toxin 2 (Escherichia coli O157:H7) (UniProt P09385+P09386)
- PROTOCOL_DETAILS: E. coli 0.157:H7 Shiga Toxin SOP - stx2 screening assay
- Type: functional
- Parameters: scale not given: direction of the effect not stated beside the values
- STUDY_CONDITIONS: 30 µM

// known answers, use as guide
| MOLECULE | ASSAYED_TARGET | Percent Effect |
| --- | --- | --- |
| COc1cc2nc3n(c(=O)c2cc1OC)CCN(C(C)=O)CC3 | Shiga toxin 2 (Escherichia coli O157:H7) (UniProt P09385+P09386) | 17% |
| CCS(=O)(=O)CC(=O)NC(c1ccc(F)cc1)C1CCCC1 (centres undefined) | Shiga toxin 2 (Escherichia coli O157:H7) (UniProt P09385+P09386) | -1.68% |
| Cn1ccnc1CN1CCC2(CC1)CN(CC1CC1)C(=O)CO2 | Shiga toxin 2 (Escherichia coli O157:H7) (UniProt P09385+P09386) | -17.7% |
| Cc1ncsc1C(=O)NC1CCN(Cc2ccc(C#N)cc2)CC1 | Shiga toxin 2 (Escherichia coli O157:H7) (UniProt P09385+P09386) | -28.6% |
| c1ccc(NCc2cn3c(n2)CN(Cc2cccnc2)CC3)nc1 | Shiga toxin 2 (Escherichia coli O157:H7) (UniProt P09385+P09386) | -39.5% |

For this molecule ( COC(=O)C(c1cc(F)ccc1F)N(C)C(=O)c1csnn1 (centres undefined) ), measured Percent Effect is -19.1%

The reported value for CCc1nccn1C1CCCN(C(=O)c2ccc3[nH]c(=O)[nH]c3c2)C1 (centres undefined) in terms of Percent Effect is -46.4%

The recorded Percent Effect for entry Cc1cc2n(n1)CC(CNC1CCN(c3ccc(F)cc3)CC1)CN2 (centres undefined) equals -37.2%

According to the records, this molecule O=C(CN1CCCC(Cn2cncn2)C1)NCCOc1ccccc1 (centres undefined) displays Percent Effect of -0.612%

Summary for this molecule, O=C1NCCN1C1CCN(CCc2cccs2)CC1 : Percent Effect is 4.4%

The recorded Percent Effect for Cc1cccc(CN2CC3(CCNCC3)OCC2=O)n1 is 5.99%

Input Cc1ccc(C(=O)NCC2(O)CCOCC2)cc1Br . Output Percent Effect: 8.46%

Percent Effect reading for O=C(CSC1CCc2ccccc2NC1=O)NCCc1ccco1 (centres undefined) : -9.27%

The molecule identified as Cc1occc1CNC(=O)N(CCCO)C1CCc2ccccc21 (centres undefined) registered its Percent Effect at 8.04%

Percent Effect recorded for this molecule, CCOC(=O)CN1CCC2(CC1)CC(=O)c1ccc(OC)cc1O2 , is 10.6%

Given item CN1[C@@H](C(=O)NCC2CC2)C[C@@H]2CN(Cc3ccco3)C[C@@H]21 , the value recorded as its Percent Effect is -1.45%

Percent Effect recorded for this molecule, COC(=O)c1ccc(N2CCN(CCN3CCOCC3)C(C)C2)cc1 (centres undefined) , is 32.4%

Fc1cc(CNCc2ccc3c(c2)CCO3)ccc1N1CCOCC1 yielded Percent Effect of -16.1%

Quick note, Percent Effect for CC(C)c1nc2n(n1)CC(NCc1nc(-c3cccnc3)no1)CC2 (centres undefined) landed at -31.5%

Percent Effect reading for CCN(CC)C1CCN(C(=O)NCc2nncn2CC)CC1 : -26%

Percent Effect reported for this molecule NC(=O)CCOc1nc(-c2ccccc2Cl)no1 : -35.8%

###

- ASSAYED_TARGET: Aspartate--tRNA(Asp/Asn) ligase (Mycobacterium tuberculosis (strain ATCC 25618 / H37Rv)) (UniProt P9WFW3); also: in the data most compounds retested in dose-response had high values
- Sequence (whole entry): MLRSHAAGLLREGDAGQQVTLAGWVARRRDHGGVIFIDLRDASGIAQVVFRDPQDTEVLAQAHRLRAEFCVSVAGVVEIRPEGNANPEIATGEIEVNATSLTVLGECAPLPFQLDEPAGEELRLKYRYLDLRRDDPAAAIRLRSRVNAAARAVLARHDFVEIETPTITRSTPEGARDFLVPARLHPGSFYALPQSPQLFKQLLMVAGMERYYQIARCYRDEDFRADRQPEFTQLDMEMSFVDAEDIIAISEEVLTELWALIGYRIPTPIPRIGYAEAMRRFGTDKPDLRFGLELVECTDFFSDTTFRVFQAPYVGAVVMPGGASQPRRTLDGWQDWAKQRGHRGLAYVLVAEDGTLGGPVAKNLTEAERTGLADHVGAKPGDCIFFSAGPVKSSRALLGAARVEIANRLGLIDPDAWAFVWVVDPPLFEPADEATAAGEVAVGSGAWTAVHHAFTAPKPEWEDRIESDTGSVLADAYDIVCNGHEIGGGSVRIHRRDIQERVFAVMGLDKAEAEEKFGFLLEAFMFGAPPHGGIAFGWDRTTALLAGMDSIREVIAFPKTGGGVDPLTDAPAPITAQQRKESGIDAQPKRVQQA
- PROTOCOL_DETAILS: Assay for Asp RNA synthetase-1 from Mycobacterium tuberculosis
- Assay type: functional
- Parameters: scale not given: direction of the effect not stated beside the values
- STUDY_CONDITIONS: 30 µM
MEASURED_ATTRIBUTE: Percent Effect (%)
Enter your answer as a number in %; do not include the unit.

Guide cases for Percent Effect, answers given:
| COMPOUND | Percent Effect (%) |
| --- | --- |
| O=C1[C@H]2CN(c3ncccn3)C[C@H]2CN1Cc1ccncc1 | 0.211 |
| Cc1ccc(CNC(=O)CN2CCCC(Cn3cncn3)C2)s1 (stereo unspecified) | -2.78 |
| CCn1c(C)cc(C(=O)N2CCCC(n3nc(C)nc3C)C2)c1C (stereo unspecified) | -4.26 |
| Cc1nc(C)n(CC2CCCN2Cc2cn3ccsc3n2)n1 (stereo unspecified) | 1.75 |
| Cn1ccnc1N1CCN(C(=O)Cc2ccc(F)cc2)CC1 | 3.25 |

Consider the additional compound presented here.
Looking up CN(C)C(=O)N1CCN(Cc2cnn(C)c2)CC2(CNC(=O)C2)C1 (stereo unspecified) , I found its Percent Effect recorded as 2.15

###

- ASSAYED_TARGET: Aspartate--tRNA(Asp/Asn) ligase (Mycobacterium tuberculosis (strain ATCC 25618 / H37Rv)) (UniProt P9WFW3); also: in the data most compounds retested in dose-response had high values
- Sequence (whole entry): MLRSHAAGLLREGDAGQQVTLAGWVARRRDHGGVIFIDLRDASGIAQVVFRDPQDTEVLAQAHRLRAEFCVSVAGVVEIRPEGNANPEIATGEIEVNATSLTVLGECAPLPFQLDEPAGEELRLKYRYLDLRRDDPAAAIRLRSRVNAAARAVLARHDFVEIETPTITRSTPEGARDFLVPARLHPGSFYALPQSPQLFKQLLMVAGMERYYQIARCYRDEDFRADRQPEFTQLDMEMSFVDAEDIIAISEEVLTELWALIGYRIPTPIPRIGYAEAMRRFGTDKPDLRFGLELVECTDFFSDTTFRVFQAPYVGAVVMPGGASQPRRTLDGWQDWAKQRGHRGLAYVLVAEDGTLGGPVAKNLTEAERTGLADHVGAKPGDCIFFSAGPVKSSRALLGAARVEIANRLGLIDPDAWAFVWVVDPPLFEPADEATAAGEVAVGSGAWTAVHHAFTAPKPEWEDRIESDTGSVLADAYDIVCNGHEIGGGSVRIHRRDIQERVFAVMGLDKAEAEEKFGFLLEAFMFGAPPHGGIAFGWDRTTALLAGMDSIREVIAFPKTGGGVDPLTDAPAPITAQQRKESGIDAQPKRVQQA
- PROTOCOL_DETAILS: Assay for Asp RNA synthetase-1 from Mycobacterium tuberculosis
- Assay type: functional
- Set-up: scale not given: direction of the effect not stated beside the values
- STUDY_CONDITIONS: 30 µM
MEASURED_ATTRIBUTE: Percent Effect (%)
Numeric answer only, unit % assumed.

Study these solved cases before continuing.
| COMPOUND | Percent Effect [%] |
| --- | --- |
| CC(C)CCN1CN=C(NS(=O)(=O)c2ccc(F)cc2)NC1 | -1.13 |
| CCCc1cc(C(=O)N2CCOC(c3nc(-c4cccs4)no3)C2)no1 (centres undefined) | -0.544 |
| CCc1nnc2n1CCN(CC(=O)Nc1sccc1C#N)C2 | -0.787 |
| NC(=O)CC1CCN(C(=O)CCOc2ccc(Cl)cc2)CC1 | -1.03 |
| CCc1cnc(CN2CCC(N(C)Cc3noc(C4CC4)n3)C2)o1 (centres undefined) | -1.09 |

The compound O=C1COc2cc(C(=O)NS(=O)(=O)c3ccccc3F)ccc2N1 showed Percent Effect equal to -0.702

Record CC(C)n1cnc2c1C(C(=O)NCCC#N)N(Cc1ccccc1)CC2 (centres undefined) . Reported Percent Effect: -1.11

###

- ASSAYED_TARGET: Shiga toxin 2 (Escherichia coli O157:H7) (UniProt P09385+P09386)
- PROTOCOL_DETAILS: E. coli 0.157:H7 Shiga Toxin SOP - stx2 screening assay
- Assay type: functional
- Set-up: scale not given: direction of the effect not stated beside the values
- STUDY_CONDITIONS: 30 µM
Recorded measurements of Percent Effect, one per entry
Please state the figure in %; there is no need to write the unit.

Below: 6 molecules and their reported Percent Effect.
| MOLECULE | ASSAYED_TARGET | Percent Effect (%) |
| --- | --- | --- |
| O=C(c1ccco1)N1CCCC1C1CCN(Cc2ccccc2)CC1 (centres undefined) | Shiga toxin 2 (Escherichia coli O157:H7) (UniProt P09385+P09386) | -11.3 |
| CCOc1ncccc1C(=O)N(C)Cc1ncc(C)c(OC)c1C | Shiga toxin 2 (Escherichia coli O157:H7) (UniProt P09385+P09386) | 19.7 |
| CN(C)[C@H]1CCCCN(C(=O)CCc2csc(N)n2)C1 | Shiga toxin 2 (Escherichia coli O157:H7) (UniProt P09385+P09386) | 3.47 |
| Cc1cnn(CC2CCCN2Cc2cc(=O)n3cccc(C)c3n2)c1 (centres undefined) | Shiga toxin 2 (Escherichia coli O157:H7) (UniProt P09385+P09386) | 8 |
| O=C1CC[C@@H]2[C@@H](CCN2C(=O)c2ccsc2)N1CC1CC1 | Shiga toxin 2 (Escherichia coli O157:H7) (UniProt P09385+P09386) | 1.28 |
| Cc1ccc(C(=O)N2CCCC(NC(=O)C(C)C)C2)c(O)c1 (centres undefined) | Shiga toxin 2 (Escherichia coli O157:H7) (UniProt P09385+P09386) | 7.56 |

The molecule c1cnn(CC2CN(CC3CCCC3)CCO2)c1 (centres undefined) , tested on Shiga toxin 2 (Escherichia coli O157:H7) (UniProt P09385+P09386), showed Percent Effect of -0.337

N#Cc1ccc(C(=O)NCCCNc2ccc(C(F)(F)F)cn2)cc1 on Shiga toxin 2 (Escherichia coli O157:H7) (UniProt P09385+P09386) gives Percent Effect = 28.9

Recorded values, source ChEMBL document CHEMBL3988442.
